The values you see were collected from patent US20250034594A1.

System: gene editing with Cas9
ASSAY_METHOD_TEXT: Screen of 322 new SSAP proteins, gene editing activity with Cas9 (Table 5)
Type: cell-based
MEASUREMENT_CONDITIONS: normalized
ASSAY_METRIC: Cas9 with SSAP activity (normalized)
Form: value (number only, do not type unit).

Look at this molecule and give its reported Cas9 with SSAP activity (normalized). SSAP_285: SEQ ID NO: 454; Chitinophaga lutea (protein, listed as Chitinophaga lutea) SNVNAPAAPVKSKIEVLKDIMNAPSVQEQFQNALRENSGVFVASVIDLFNSDTYLQNCEPKQVVMECLKAATLKLPINKNLGFAYVVPYKSNGKQIPQFQIGYKGYIQLAMRTGQYRIINADKVYEGEYRTKNKLTGEFDLSGTATSETVVGYFAHIEMLNGFAKTLYMTKEKVAAHAKKYSKSFGKETSPWHTEFDAMALKTVLRNLLSHYGYLSVEMMGAMNADIESDQVGSEVSQTINDKANKQEMTFDDAEVVDDDEKEQNPI −0.366
